Tested on: MS2 coat protein
protocolNotes: apparent Kd, MS2 coat protein; higher = weaker binding; RNA-MaP array; FMN 200 µM where present
conditionDetails: ligand present: flavin mononucleotide; designed as: OFF switch for flavin mononucleotide
# apparent Kd values compiled below
Give the quantity in µM, number only.

GGUGCGUAUGUGAGGAUAUGCUGGUCCUUGGGUCGGCAGAAGGCACAUGAGGAUCACCCAUGUGGUGUCGUUCC
0.0865
UCUGCCGCCGUGAGGAUAUGCCCGCAAAAACGCGGGCAGAAGGCACAUGAGGAUCACCCAUGUCCCGCGGUUUU
0.0336
GGAAGACAAAGUCUUCCAAUUCGAACAUGAGGAUCACCCAUGUAGGAUAUGCUACUCAAAGAGUAGCAGAAGGACAUGUGCUUU
0.164
AGCUGUGGCCGAGGAUAUCUACUAAUCCAAACCGAAAUAUAAUCGGACAUGAGGAUCACCCAUGUAGAGAAGGCGGUCUCAGCA
0.41

GET /values?readout=apparent Kd&item= "GUUUAGUGAGGAUAUGCGGCAUCGAUCGAGCGCGGUCGGCUACAGAAGGCACAUGAGGAUCACCCAUGUUUCUC"
0.278

GET /values?readout=apparent Kd&item= "UACCUGAGGCAAAGCUUUAGGUAUACAUGAGGAUCACCCAUGUAGGAUAUGGUAGGCUUUGCUUACCAGAAGGACAUGUUAAUA"
0.0563

GET /values?readout=apparent Kd&item= "UGUCGGAGCAGAGGAUAUACAUGAGGAUCACCCAUGUAAAUGAAAGAUAAGCUGGAAACAGCAAUGUAGAAGGCUGCUCCGACA"
0.0881
